- assay_system: human Kv1.5 (Homo sapiens, UniProt P22460)
- Sequence (P22460 whole entry): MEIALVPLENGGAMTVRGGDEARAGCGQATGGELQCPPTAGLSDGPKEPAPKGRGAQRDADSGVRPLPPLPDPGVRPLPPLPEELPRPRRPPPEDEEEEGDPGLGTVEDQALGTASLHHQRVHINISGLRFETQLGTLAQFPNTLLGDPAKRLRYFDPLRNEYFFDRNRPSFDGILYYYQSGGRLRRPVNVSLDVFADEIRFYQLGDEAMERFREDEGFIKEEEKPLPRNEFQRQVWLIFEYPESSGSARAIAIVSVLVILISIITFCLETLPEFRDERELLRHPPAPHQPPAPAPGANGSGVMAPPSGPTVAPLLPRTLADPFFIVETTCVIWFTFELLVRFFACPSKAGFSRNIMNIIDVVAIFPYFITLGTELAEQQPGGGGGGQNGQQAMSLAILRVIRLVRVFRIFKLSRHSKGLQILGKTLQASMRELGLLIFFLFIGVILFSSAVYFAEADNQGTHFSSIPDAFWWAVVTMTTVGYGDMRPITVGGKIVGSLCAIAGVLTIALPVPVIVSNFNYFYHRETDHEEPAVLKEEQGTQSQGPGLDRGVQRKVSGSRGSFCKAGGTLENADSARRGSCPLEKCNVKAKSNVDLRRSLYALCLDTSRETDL
- assay_explanation: Kv1.5 Rb+ Efflux Assay
- condition_description: inhibition of 86Rb+ efflux through Kv1.5; cells stably transfected with human Kv1.5; 10 point concentration response curves n=2; normalised to 2.5mM 4 amino-pyridine block
measure_name: pIC50
pIC50 is defined as minus the log10 of a concentration measured in mol/L.

// solved cases for pIC50 follow
[[record]]
compound = "CN(Cc1ccco1)c1ncnc2scc(-c3ccccc3)c12 [Example 88]"
assay_result = 5.17

[[record]]
compound = "COC(=O)C1CCN(c2nc(NCc3ccccn3)c3c(-c4ccc(F)cc4)csc3n2)CC1 [Example 201]"
assay_result = 4.80


Alright, here's another compound for you.
Lookup: Query: pIC50; subject: c1ccc(-c2csc3ncnc(NCc4ccoc4)c23)cc1 [Example 107]
Found: 5.98

Origin of the recorded values: patent EP1641803B1
